- EXPERIMENTAL TARGET: M2 muscarinic receptor (Homo sapiens)
- Construct: expressed in transfected cells; host or cells: CHO (M2-CHO)
- Sequence (P08172 whole entry): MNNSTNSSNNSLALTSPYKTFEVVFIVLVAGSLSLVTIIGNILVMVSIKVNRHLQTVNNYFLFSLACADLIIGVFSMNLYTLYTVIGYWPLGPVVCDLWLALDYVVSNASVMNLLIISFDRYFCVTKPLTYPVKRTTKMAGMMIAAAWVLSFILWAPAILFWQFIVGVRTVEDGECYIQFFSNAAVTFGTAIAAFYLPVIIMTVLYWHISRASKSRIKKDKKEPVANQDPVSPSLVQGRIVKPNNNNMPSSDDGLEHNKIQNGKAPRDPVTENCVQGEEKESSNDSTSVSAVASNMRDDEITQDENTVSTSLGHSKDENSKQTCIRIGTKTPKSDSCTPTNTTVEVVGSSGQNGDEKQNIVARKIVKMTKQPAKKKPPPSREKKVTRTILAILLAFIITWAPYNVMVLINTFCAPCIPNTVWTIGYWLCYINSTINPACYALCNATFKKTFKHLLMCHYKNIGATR
- ASSAY OVERVIEW: Functional mobilization of intracellular calcium (FLIPR) in CHO cells expressing M2
- Format: cell-based
- RUN PARAMETERS: CHO; 100% = maximum response obtained with the Carbachol control; read-out: M2 Efficacy
READOUT TYPE: Emax

Solved entries (count: 3):
[[record]]
compound = "CC(=O)N[C@H]1CCC2(CCN(CCC(C)(C)C)CC2)c2cc(F)ccc21 [compound 177]"
readout_type = "Emax"
reading = "25 to 100%"

[[record]]
compound = "COC(=O)CCCN1CCC2(CC[C@H](NC(C)=O)c3ccccc32)CC1 [compound 16]"
readout_type = "Emax"
reading = "< 25%"

[[record]]
compound = "CC(C)(C)CCN1CCC2(CC[C@H](NC(=O)CN3CCCCCC3=O)c3ccccc32)CC1 [compound 71]"
readout_type = "Emax"
reading = "25 to 100%"


Now examine the next entry.
The recorded Emax for Cn1cc(C(=O)N[C@@H]2CCC3(CCN(CCC(C)(C)C)CC3)c3ccccc32)cn1 [compound 129] is < 25%
